Experiment: qHTS assay for identifying genotoxic compounds that show differential cytotoxicity against isogenic chicken DT40 cell lines with known DNA damage response pathways - Rev3 mutant cell line (AID 743014); further: nearly all actives have a fitted effect of over 55% in size
Details: chicken DT40 Rev3-/- viability, CellTiter-Glo, 40 h; series mostly up to 68.4 µM
Records with an inconclusive call do not appear. The source made the active and inactive calls. The call rests on the fitted dose curve; in most records, active means well fitted cell-killing curve with a large enough effect in the repeat runs; inconclusive means weak or mixed curves, or effect the other way; inactive means no such curve, though single readings can be large or run the other way.
Bench note: report the call from TRUE for active, FALSE for inactive

Here are 6 molecules together with their reported answers.
CCCCCCCC/C=C\CCCCCCCC(N)=O | FALSE
O=S(=O)(O)c1ccc(O)c2ncccc12 | FALSE
CC(=O)Nc1ccc(/C=N/NC(N)=S)cc1 | FALSE
O=C(c1ccc(O)cc1)c1ccc(O)cc1 | FALSE
CC(=O)/C(C)=C/C1C(C)=CCCC1(C)C (stereo not given) | FALSE
CCCCCCCCCCCCCCC1CO1 (stereo not given) | FALSE

Task: // outcome(item) with item = Cc1cc(O)ccc1N
Result: TRUE

Task: Which outcome was assigned to Oc1ccc(C(O)CNCCCCCCNCC(O)c2ccc(O)c(O)c2)cc1O (stereo not given) in this test?
Result: TRUE

Task: Recorded call for COCCO ?
Result: FALSE

Task: Could you check what this test reported for Nc1ccc(C(=O)Nc2ccccc2N)cc1 ?
Result: TRUE

Task: Field: outcome | Entry: CCCCCCCCCCCCC(=O)O
Result: FALSE

Task: Test call for this molecule, please: NC(N)=N/N=C/c1c(Cl)cccc1Cl
Result: TRUE

Task: What was the test verdict on N#Cc1c(F)cccc1F ?
Result: FALSE

Task: Could you check what this test reported for CN1CCC(=C2c3ccccc3CCc3sccc32)CC1 ?
Result: TRUE

Task: Fill in: this test's call for COc1ccccc1OC(=O)Oc1ccccc1OC is ___
Result: FALSE

====

Experiment: qHTS assay to identify small molecule antagonists of the constitutive androstane receptor (CAR) signaling pathway - cell viability counter screen (AID 1224837); further: nearly all actives have a fitted effect of over 45% in size
Settings: HepG2-CYP2B6-hCAR viability, CellTiter-Fluor, 23 h, co-treated with 50 nM CITCO; series mostly up to 92.4 µM
Results filed as inconclusive are left out. Calls of active or inactive are those of the source. The call rests on the fitted dose curve; in most records, active means well fitted cell-killing curve with a large enough effect in the repeat runs; inconclusive means weak or mixed curves, or effect the other way; inactive means flat fitted curve, though single readings scatter.
Give one outcome, nothing more. List: active, inactive

CCCCCc1ccc(N)cc1 | inactive
CCN(CC)C(C)=O | inactive
CC(C)c1cccc(C(C)C)c1NC(=O)NS(=O)(=O)c1cc(C(C)(C)O)co1 | inactive
CCCCC(CC)COCCCN (stereo not given) | inactive
CCN(CC)CCNC(C(=O)OCCC(C)C)c1ccccc1 (stereo not given) | inactive

Continue with the next compound.
Task: Per the records of this test, what outcome belongs to CC(C)(Oc1ccc(Cl)cc1)C(=O)OCCCOC(=O)C(C)(C)Oc1ccc(Cl)cc1 ?
Result: inactive

====

Target: Androgen receptor (Homo sapiens) (UniProt P10275)
Sequence (P10275 whole entry, looked up): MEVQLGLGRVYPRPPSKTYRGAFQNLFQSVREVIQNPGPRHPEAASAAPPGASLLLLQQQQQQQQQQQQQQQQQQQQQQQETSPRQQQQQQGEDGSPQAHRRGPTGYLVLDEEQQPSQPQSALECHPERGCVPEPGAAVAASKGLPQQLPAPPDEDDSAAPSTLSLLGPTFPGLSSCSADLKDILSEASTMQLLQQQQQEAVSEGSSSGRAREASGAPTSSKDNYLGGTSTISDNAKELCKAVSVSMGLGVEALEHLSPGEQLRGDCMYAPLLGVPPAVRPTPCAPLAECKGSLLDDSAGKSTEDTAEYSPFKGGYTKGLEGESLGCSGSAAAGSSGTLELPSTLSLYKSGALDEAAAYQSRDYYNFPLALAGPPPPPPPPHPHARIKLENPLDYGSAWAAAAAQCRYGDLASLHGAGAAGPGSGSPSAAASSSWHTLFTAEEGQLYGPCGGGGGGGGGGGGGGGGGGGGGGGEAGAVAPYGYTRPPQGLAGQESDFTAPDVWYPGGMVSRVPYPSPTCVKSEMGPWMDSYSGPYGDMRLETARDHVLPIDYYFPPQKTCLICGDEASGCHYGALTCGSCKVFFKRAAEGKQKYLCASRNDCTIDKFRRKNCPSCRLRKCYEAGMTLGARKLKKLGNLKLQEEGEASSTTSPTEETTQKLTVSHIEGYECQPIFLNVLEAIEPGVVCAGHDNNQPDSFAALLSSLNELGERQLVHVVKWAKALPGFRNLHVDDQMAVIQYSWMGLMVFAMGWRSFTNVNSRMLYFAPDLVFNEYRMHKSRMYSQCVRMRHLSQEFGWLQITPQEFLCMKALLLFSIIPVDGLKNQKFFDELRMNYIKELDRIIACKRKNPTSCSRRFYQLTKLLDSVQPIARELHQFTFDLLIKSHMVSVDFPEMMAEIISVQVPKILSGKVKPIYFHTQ
Assay: qHTS assay to identify small molecule agonists of the androgen receptor (AR) signaling pathway (AID 743036)
Settings: HEK293 AR-UAS-bla GripTite, beta-lactamase FRET ratio, 16 h; series mostly up to 62.4 µM
Records with an inconclusive call do not appear. Active and inactive are the calls of the source. The call rests on the fitted dose curve; in most records, active means well fitted activation curve with a large enough effect in the signal ratio in the repeat runs, with a control signal flat (not every such curve was filed as active); inconclusive means weak or mixed curves, or effect the other way; inactive means no such curve, though single readings can be large or run the other way; the % refers to the signal ratio.
MEASURED ATTRIBUTE: outcome

Solved entries:
O=C(CCN1CCN2CCCC2C1)N1c2ccccc2Sc2ccc(Cl)cc21 (configuration not stated) | inactive
CCOc1nc2cccc(C(=O)O)c2n1Cc1ccc(-c2ccccc2-c2nn[nH]n2)cc1 | inactive
COc1ccccc1OC(=O)Oc1ccccc1OC | inactive
CC(C)(C)c1cc(O)c(C(C)(C)C)cc1O | inactive
NCCCN(CCO)CCO | inactive
C=C(C)C(=O)OC(C)C | inactive
O=C(C(=O)c1ccc(Br)cc1)c1ccc(Br)cc1 | inactive
CC(C)CCCC(C)CCO (configuration not stated) | inactive
C=C(C)C(=O)OCCOc1ccccc1 | inactive
CCCCCCCC/C=C\CCCCCCCC(N)=O | inactive

Task: Record request: outcome value, item NC(=S)N/N=C/c1cccnc1
Result: inactive

Task: Which outcome value is on record for CNCC[C@@H](Oc1ccccc1C)c1ccccc1 ?
Result: inactive

Task: Quick check: outcome of CN(C)CC/C=C1\c2ccccc2COc2ccccc21 ?
Result: inactive

Task: // outcome lookup, key: Cc1cc(NC(=O)C(=O)O)cc(C)c1Oc1ccc(O)c2c1CCC2
Result: inactive

Task: # outcome lookup, item CCN(CC)CCOC(=O)C1(c2ccccc2)CCCC1
Result: inactive

Task: Any idea what outcome was measured for COc1ccc(C(C)=O)cc1 ?
Result: inactive

Task: Dear colleague, I am looking for the recorded outcome of the following molecule: CCCCOC(O)CC (configuration not stated)
Result: inactive
